tested on: LOX IMVI; assay: Growth inhibition of human LOXIMVI cells at 10 uM after 48 hrs; type: functional
The source made the active and inactive calls. No cut-off for these calls is given here.
Measured quantity: growth inhibition (GI)

Study these solved cases before continuing.
- Query smiles: "Cc1ccc(-n2c(Sc3sc(N)nc3C)nc3ccc(Cl)cc3c2=O)cc1"
  growth inhibition (GI): "inactive"
- Query smiles: "COc1cc2nc(Sc3sc(N)nc3C)n(-c3ccc(Cl)cc3)c(=O)c2cc1OC"
  growth inhibition (GI): "inactive"
- Query smiles: "COc1cc2nc(Sc3sc(N)nc3C)n(-c3ccc(C)cc3)c(=O)c2cc1OC"
  growth inhibition (GI): "inactive"
- Query smiles: "COc1cc2nc(Sc3sc(N)nc3C)n(Cc3ccccc3)c(=O)c2cc1OC"
  growth inhibition (GI): "inactive"

q: Endpoint output: growth inhibition (GI) of Cc1nc(N)sc1Sc1nc2ccc(Cl)cc2c(=O)n1-c1ccc(Cl)cc1 . Value?
a: inactive

q: Proceed to COc1ccc(-n2c(Sc3sc(N)nc3C)nc3cc(OC)c(OC)cc3c2=O)cc1
a: inactive

q: Proceed to Cc1ccc2nc(Sc3nnc(N)s3)n(Cc3ccccc3)c(=O)c2c1
a: inactive

q: Proceed to Cc1ccc2nc(Sc3sc(N)nc3C)n(-c3ccc(Oc4ccccc4)cc3)c(=O)c2c1
a: inactive

q: Proceed to Cc1ccc(-n2c(Sc3sc(N)nc3C)nc3ccc(C)cc3c2=O)cc1
a: inactive

q: Proceed to Cc1ccc2nc(Sc3sc(N)nc3C)n(-c3ccccc3)c(=O)c2c1
a: inactive

---

experiment: Growth inhibition of human UO31 cells at 10 uM after 48 hrs; type: functional; conditions: UO-31, 48 h, read-out: GI
Measured quantity: inhibition of growth at 10 µM (%)
I only need the number, in %, no unit after it.

q: Endpoint output: inhibition of growth at 10 µM of COc1cc2nc(Sc3nnc(N)s3)n(Cc3ccccc3)c(=O)c2cc1OC . Value?
a: 21.5

q: Proceed to Cc1nc(N)sc1Sc1nc2ccc(Cl)cc2c(=O)n1-c1ccc(Oc2ccccc2)cc1
a: 38.3

q: Proceed to Cc1nc(N)sc1Sc1nc2ccc(Cl)cc2c(=O)n1Cc1ccccc1
a: 36.4

q: Proceed to Cc1nc(N)sc1Sc1nc2ccc(Cl)cc2c(=O)n1-c1ccccc1
a: 32.6

q: Proceed to Nc1nnc(Sc2nc3ccc(Cl)cc3c(=O)n2-c2ccc(Oc3ccccc3)cc2)s1
a: 17

q: Proceed to Nc1nnc(Sc2nc3ccc(Cl)cc3c(=O)n2-c2ccc(Cl)cc2)s1
a: 24.6

q: Proceed to Nc1nnc(Sc2nc3ccc(Cl)cc3c(=O)n2Cc2ccccc2)s1
a: 27.2

---

Biological target: Dihydrofolate reductase (Bos taurus)
Sequence (P00376 whole entry): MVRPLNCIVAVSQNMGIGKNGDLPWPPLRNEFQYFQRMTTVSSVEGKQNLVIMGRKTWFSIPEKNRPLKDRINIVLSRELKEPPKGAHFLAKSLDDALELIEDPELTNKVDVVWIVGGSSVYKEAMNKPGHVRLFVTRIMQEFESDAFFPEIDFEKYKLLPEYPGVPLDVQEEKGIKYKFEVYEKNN
Please note: IC50 exactly at 3 µM is FALSE. Only values below 3 µM get TRUE.

q: Determine whether this compound shows IC50 lower than 3 µM (ties excluded): Cc1ccc2nc(Sc3sc(N)nc3C)n(-c3ccccc3)c(=O)c2c1
a: FALSE

q: Proceed to COc1cc2nc(Sc3sc(N)nc3C)n(-c3ccccc3)c(=O)c2cc1OC
a: FALSE

q: Proceed to COc1cc2nc(Sc3nnc(N)s3)n(-c3ccccc3)c(=O)c2cc1OC
a: FALSE

q: Proceed to COc1cc2nc(Sc3sc(N)nc3C)n(Cc3ccccc3)c(=O)c2cc1OC
a: FALSE

q: Proceed to COc1cc2nc(Sc3nnc(N)s3)n(-c3ccc(Oc4ccccc4)cc3)c(=O)c2cc1OC
a: TRUE

q: Proceed to COc1cc2nc(Sc3sc(N)nc3C)n(-c3ccc(Oc4ccccc4)cc3)c(=O)c2cc1OC
a: FALSE

q: Proceed to COc1cc2nc(Sc3sc(N)nc3C)n(-c3ccc(C)cc3)c(=O)c2cc1OC
a: FALSE

q: Proceed to Nc1nnc(Sc2nc3ccc(Cl)cc3c(=O)n2-c2ccc(Cl)cc2)s1
a: TRUE

q: Proceed to Cc1nc(N)sc1Sc1nc2ccc(Cl)cc2c(=O)n1-c1ccc(Oc2ccccc2)cc1
a: TRUE

q: Proceed to Cc1ccc2nc(Sc3sc(N)nc3C)n(-c3ccc(Cl)cc3)c(=O)c2c1
a: FALSE

q: Proceed to Cc1ccc(-n2c(Sc3sc(N)nc3C)nc3ccc(C)cc3c2=O)cc1
a: FALSE

q: Proceed to Cc1ccc(-n2c(Sc3sc(N)nc3C)nc3ccc(Cl)cc3c2=O)cc1
a: FALSE

q: Proceed to COc1ccc(-n2c(Sc3sc(N)nc3C)nc3cc(OC)c(OC)cc3c2=O)cc1
a: TRUE

q: Proceed to COc1ccc(-n2c(Sc3nnc(N)s3)nc3ccc(Cl)cc3c2=O)cc1
a: TRUE

q: Proceed to Cc1ccc2nc(Sc3nnc(N)s3)n(Cc3ccccc3)c(=O)c2c1
a: TRUE

q: Proceed to COc1cc2nc(Sc3sc(N)nc3C)n(-c3ccc(Cl)cc3)c(=O)c2cc1OC
a: TRUE
